Entries annotated with measured Intrinsic Activity (adenylate cyclase assay)
system: dopamine D-1 receptor; conditions: dopamine = 100; goldfish retina or rat striatum
Counter-ions that a name gives are not always drawn.
A bare number is all that is needed in reply.

C=CCNC[C@H]1O[C@@H](c2ccccc2)Cc2c1ccc(O)c2O (stereo in doubt) [Example 126] | 94
Oc1ccc2c(c1O)C[C@@H](c1ccccc1)C[C@H]2[C@H]1CCCN1 (relative stereo) [Example 180, Hydrobromide] | 71
Oc1ccc2c(c1O)CC1(CCCCC1)C1=C2CNCC1 [Example 205] | 100

# Intrinsic Activity (adenylate cyclase assay) lookup, item NC[C@H]1C[C@@H](c2ccccc2)Cc2c1ccc(O)c2O (relative stereo) [Example 35, Hydrobromide]
66

// returns reported Intrinsic Activity (adenylate cyclase assay) for input CC(C)(C)[C@@H]1Cc2c(ccc(O)c2O)[C@H](CN)C1 (relative stereo) [Example 195]
73

Could you share which Intrinsic Activity (adenylate cyclase assay) value was measured for NCC1CC2(CCCCCCC2)Cc2c1ccc(O)c2O (centres unmarked) [Example 197] ?
56

I'd like to know its Intrinsic Activity (adenylate cyclase assay). The molecule in question is CN(C)CC1OC(CC(C)(C)C)Cc2c1ccc(O)c2O (centres unmarked) [Example 220]
72

Give its Intrinsic Activity (adenylate cyclase assay) value. Item: NCC1=CC(c2cccc3ccccc23)Cc2c1ccc(O)c2O (centres unmarked) [Example 41]
81

---

Listed here: items and their measured EC50.
molecular target: dopamine D-1 receptor; settings: read-out: EC50 (agonist activity in adenylate cyclase assay); tissue from goldfish retina or rat striatum
Answer format: numeric, nM implied, no suffix.

NCC1=CC2(CCCCCCC2)Cc2c1ccc(O)c2O [Example 191] | 1500
CCC(C)C(C)[C@@H]1Cc2c(ccc(O)c2O)[C@H](CN)O1 (stereo partly drawn) [Example 72] | 170
CNC[C@@H]1O[C@H](C(C)(C)C)Cc2c1ccc(O)c2O.Cl [Example 112, hydrochloride] | 8
CCCCCC(NC(=O)CCl)[C@@H]1Cc2c(ccc(O)c2O)[C@H](CN)O1 (relative stereo) [Example 165] | 31
Br.NCC1=CC(C2CCCCC2)Cc2c1ccc(O)c2O (stereo not drawn) [Example 36, Hydrobromide] | 79

Can you look up EC50 on dopamine D-1 receptor for CNCC1OC(CC(C)(C)C)Cc2c1ccc(O)c2O (stereo not drawn) [Example 217] ?
20

What value of EC50 on dopamine D-1 receptor does CCCCCC(NC(C)=O)[C@@H]1Cc2c(ccc(O)c2O)[C@H](CN)O1 (relative stereo) [Example 163] have?
1450

Lookup: EC50 / dopamine D-1 receptor / NCC1=CC(c2cccc(O)c2)Cc2c1ccc(O)c2O (stereo not drawn) [Example 38]
33

Field: EC50 (dopamine D-1 receptor). Entry: COc1ccc(OC[C@H]2Cc3c(ccc(O)c3O)[C@@H](CN)O2)cc1 (relative stereo) [Example 53]
23

---

test system: dopamine D-1 receptor; conditions: dopamine = 100; goldfish retina or rat striatum
Structures can show the parent of a compound that is named as a salt.
Intrinsic Activity (adenylate cyclase assay) overview
// no unit, no text: just the number

The following molecules have reported results that may help.
NC[C@H]1O[C@@H](CO)Cc2c1ccc(O)c2O (relative stereo) [Example 155, Hydrochloride] | 95
CNCC1=CC(c2ccccc2)Cc2c1ccc(O)c2O (stereo not drawn) | 78
Oc1ccc2c(c1O)CC1(CCCCCCC1)C1=C2CNCC1 | 64

Request the reported Intrinsic Activity (adenylate cyclase assay) associated with NCC1OC2(CCCCCC2)Cc2c1ccc(O)c2O (stereo not drawn)
113

I would be grateful if you could share the reported Intrinsic Activity (adenylate cyclase assay) for CN(C)C[C@@H]1O[C@H](C(C)(C)C)Cc2c1ccc(O)c2O .
89

Please look up its Intrinsic Activity (adenylate cyclase assay): NC[C@@H]1O[C@H](COc2ccc(Br)cc2)Cc2c1ccc(O)c2O (relative stereo)
63

I have this molecule here, NC[C@H]1O[C@@H](CN2CCCC2)Cc2c1ccc(O)c2O (relative stereo) [Example 156, Dihydrochloride] , and I need its recorded Intrinsic Activity (adenylate cyclase assay).
127

Entry NCC1CC2(CCCCCC2)Cc2c1ccc(O)c2O (stereo not drawn) : reported Intrinsic Activity (adenylate cyclase assay) = ?
63

Any idea what Intrinsic Activity (adenylate cyclase assay) was measured for CNCC1OC2(CCCCCC2)Cc2c1ccc(O)c2O (stereo not drawn) ?
97

I'd like to know its Intrinsic Activity (adenylate cyclase assay). The molecule in question is CN(C)C[C@@H]1O[C@H](C2CCCCC2)Cc2c1ccc(O)c2O (relative stereo)
71

May I ask what Intrinsic Activity (adenylate cyclase assay) has been recorded for Oc1ccc2c(c1O)CC1(CCCCCCCC1)C1=C2CNCC1 ?
48

---

molecular target: dopamine D-2 receptor (Rattus norvegicus, UniProt P61169); assay: biochemical; type: binding; conditions: rat caudate, [125I]-p-aminophenylethyl spiroperidol; read-out: D-2 Ki
Sequence (P61169 whole entry): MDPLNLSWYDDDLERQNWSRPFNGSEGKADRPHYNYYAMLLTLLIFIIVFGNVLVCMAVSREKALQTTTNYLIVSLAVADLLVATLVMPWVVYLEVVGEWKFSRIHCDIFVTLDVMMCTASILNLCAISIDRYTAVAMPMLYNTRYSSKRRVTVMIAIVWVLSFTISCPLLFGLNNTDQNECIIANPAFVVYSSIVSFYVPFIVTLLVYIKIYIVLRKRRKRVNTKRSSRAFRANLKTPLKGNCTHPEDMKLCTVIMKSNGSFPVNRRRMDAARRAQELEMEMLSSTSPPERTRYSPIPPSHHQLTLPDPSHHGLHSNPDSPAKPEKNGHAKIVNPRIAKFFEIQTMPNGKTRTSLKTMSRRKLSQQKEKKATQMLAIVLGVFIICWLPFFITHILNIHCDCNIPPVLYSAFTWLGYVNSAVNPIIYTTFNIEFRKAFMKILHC
pKi: −log10 of the molar value.
Assign class by pKi: not lower than 6 means condition met; lower than 6 means condition not met.

COc1ccc(OC[C@H]2Cc3c(ccc(O)c3O)[C@@H](CN)O2)cc1 (relative stereo) | condition met
C#CCNC[C@H]1O[C@@H](C2CCCCC2)Cc2c1ccc(O)c2O (relative stereo) | condition not met
NC[C@H]1O[C@@H](c2cccc(C(F)(F)F)c2)Cc2c1ccc(O)c2O (relative stereo) | condition not met
CN(C)C[C@@H]1O[C@H](C(C)(C)C)Cc2c1ccc(O)c2O | condition not met

Please find the next compound below.
Could you verify whether the entry C=CCNC[C@@H]1O[C@H](c2ccccc2)Cc2c1ccc(O)c2O (stereo in doubt) shows pKi of no less than 6?
condition met

---

molecular target: dopamine D-1 receptor (Rattus norvegicus); experiment: biochemical; conditions: D-1 Ki, rat caudate, [125I]SCH-23982
Sequence (P18901 whole entry): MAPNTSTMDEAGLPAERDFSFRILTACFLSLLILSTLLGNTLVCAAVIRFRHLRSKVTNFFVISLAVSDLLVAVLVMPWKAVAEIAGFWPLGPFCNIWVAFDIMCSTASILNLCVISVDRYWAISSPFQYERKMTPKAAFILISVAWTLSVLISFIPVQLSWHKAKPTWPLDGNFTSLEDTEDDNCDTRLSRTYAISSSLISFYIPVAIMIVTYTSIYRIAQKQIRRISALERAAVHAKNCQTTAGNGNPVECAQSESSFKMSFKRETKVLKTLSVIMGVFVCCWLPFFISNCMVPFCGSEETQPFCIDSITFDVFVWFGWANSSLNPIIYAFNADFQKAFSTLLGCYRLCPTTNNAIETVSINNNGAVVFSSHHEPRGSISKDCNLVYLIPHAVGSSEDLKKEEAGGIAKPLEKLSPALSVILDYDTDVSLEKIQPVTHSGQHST
Below: a set of entries, each annotated with reported Ki.
Numeric only. Scale: µM

Some entries whose results are on file:
Oc1ccc2c(c1O)CC1(CCCCC1)C1=C2CNCC1 | 0.21
NC[C@@H]1O[C@H](CC23CC4CC(CC(C4)C2)C3)Cc2c1ccc(O)c2O (relative stereo) | 0.076
CNCC1=CC(c2ccccc2)Cc2c1ccc(O)c2O (centres unmarked) | 0.46
CC(C)(C)c1ccc(OC[C@H]2Cc3c(ccc(O)c3O)[C@@H](CN)O2)cc1 (relative stereo) | 1.1

Field: next molecule
# value lookup — system dopamine D-1 receptor (Rattus norvegicus), readout Ki, item NC[C@H]1O[C@@H](CNC(=O)c2cccnc2)Cc2c1ccc(O)c2O (relative stereo)
0.57

---

molecular target: dopamine D-1 receptor (Rattus norvegicus); test: biochemical; conditions: D-1 Ki, rat caudate, [125I]SCH-23982
# 1 = Ki below 1000 nM (exclusive); 0 = Ki at/above 1000 nM

NC[C@H]1O[C@@H](CCO)Cc2c1ccc(O)c2O (relative stereo) [Example 160] | 0

Please state whether Ki is below 1000 nM for CNCC1OC2(CCCCCCCC2)Cc2c1ccc(O)c2O (stereo not drawn) [Example 224]
1

Could you please tell me whether Ki recorded for C=CCNC[C@H]1O[C@@H](C23CC4CC(CC(C4)C2)C3)Cc2c1ccc(O)c2O (relative stereo) [Example 117] is less than 1000 nM?
0

# strict comparison: is reported Ki < 1000 nM? input = NC[C@H]1O[C@@H](CNC(=O)c2ccccc2)Cc2c1ccc(O)c2O (relative stereo) [Example 164]
0

Consider CN(C)C[C@@H]1O[C@H](C2CCCCC2)Cc2c1ccc(O)c2O (relative stereo) [Example 228] . Does its Ki lie strictly below 1000 nM?
1

API: query returns whether the compound falls strictly under 1000 nM in Ki. Query: CCCC1(CCC)C=C(CN)c2ccc(O)c(O)c2C1 [Example 192]
0

---

biological target: dopamine D-1 receptor (Rattus norvegicus); experiment: biochemical; settings: D-1 Ki, rat caudate, [125I]SCH-23982
So basically, if Ki comes in under 1000 nM it's Condition met, and if it's 1000 nM or more it's Condition not met.

Recorded results for 8 compounds are shown here.
NC[C@@H]1O[C@H](CC2CCCCC2)Cc2c1ccc(O)c2O (relative stereo) | Condition met
Oc1ccc2c(c1O)CC1(CCCCCCCCC1)C1=C2CNCC1 | Condition met
NC[C@@H]1O[C@H](c2ccc(Br)cc2)Cc2c1ccc(O)c2O (relative stereo) | Condition met
CC(C)(C)CC1Cc2c(ccc(O)c2O)C2=C1CCNC2 (stereo not drawn) | Condition not met
C=CCNC[C@@H]1O[C@H](C(C)(C)C)Cc2c1ccc(O)c2O | Condition not met
NC[C@H]1O[C@@H](CN2CCCCC2)Cc2c1ccc(O)c2O (relative stereo) | Condition not met
CNCC1OC(CC(C)(C)C)Cc2c1ccc(O)c2O (stereo not drawn) | Condition met
CNC[C@H]1O[C@@H](CC(C)(C)C)Cc2c1ccc(O)c2O (relative stereo) | Condition met

Then there is this compound:
Report whether reported Ki is lower than 1000 nM (strictly) for CNC[C@H]1O[C@@H](CCO)Cc2c1ccc(O)c2O (relative stereo)
Condition not met
